Documented CC50 at 24 h across a set of compounds
- measurement notes: Cytotoxicity against human GES1 cells assessed as reduction in cell viability measured after 24 hrs by MTT assay
- Format: cell-based
// return numeric value only (unit: µM, not printed)

Please review the entries below; each comes with its answer.
INSERT INTO assay_data (compound, readout_value) VALUES
  ('C=CCNC1=C2C[C@@H](C)C[C@H](OC)[C@H](O)[C@@H](C)/C=C(\C)[C@H](OC(N)=O)[C@@H](OC)/C=C\C=C(/C)C(=O)NC(=CC1=O)C2=O [TANESPIMYCIN]', 7.94),
  ('CC1(C)[C@H]2CC[C@]1(C)N(Cc1cn(-c3ccccc3)nn1)C(=O)C2', 6.69),
  ('CC1(C)[C@H]2CC[C@]1(C)N(Cc1cn(-c3ccccc3C#N)nn1)C(=O)C2', 9.45),
  ('CC1(C)[C@H]2CC[C@]1(C)N(Cc1cn(-c3ccccc3F)nn1)C(=O)C2', 5.16),
  ('CC1(C)[C@H]2CC[C@]1(C)N(Cc1cn(-c3ccccc3Cl)nn1)C(=O)C2', 5.37);

Field request: CC50 at 24 h | item: CC1(C)[C@H]2CC[C@]1(C)N(Cc1cn(-c3cccc(Br)c3)nn1)C(=O)C2
9.93

Need CC50 at 24 h of CC1(C)[C@H]2CC[C@]1(C)N(Cc1cn(-c3ccc(C#N)cc3)nn1)C(=O)C2 , thanks.
11.2

Endpoint output: CC50 at 24 h of CC1(C)[C@H]2CC[C@]1(C)N(Cc1cn(-c3cccc(Cl)c3)nn1)C(=O)C2 . Value?
69.8

* * *

- System: A549
- measurement notes: Antiproliferative activity against human A549 cells assessed as inhibition of cell proliferation measured after 24 hrs by MTT assay
- Format: functional, cell-based
- condition: A549, 24 h
Classes based on IC50: small value: < 90 nM; mid value: ≥ 90 nM and < 200 nM; large value: ≥ 200 nM

Solved entries (count: 4):
INSERT INTO results (input_smiles, discrete_label) VALUES
  ('COc1cccc(-n2cc(CN3C(=O)C[C@@H]4CC[C@@]3(C)C4(C)C)nn2)c1', 'large value'),
  ('CC1(C)[C@H]2CC[C@]1(C)N(Cc1cn(-c3ccc(O)cc3)nn1)C(=O)C2', 'mid value'),
  ('CC1(C)[C@H]2CC[C@]1(C)N(Cc1cn(-c3cccc(F)c3)nn1)C(=O)C2', 'mid value'),
  ('CC1(C)[C@H]2CC[C@]1(C)N(Cc1cn(-c3ccc(Br)cc3)nn1)C(=O)C2', 'small value');

Class (by measured IC50) for Cc1ccc(-n2cc(CN3C(=O)C[C@@H]4CC[C@@]3(C)C4(C)C)nn2)cc1
large value

Into which category would you place Cc1cccc(-n2cc(CN3C(=O)C[C@@H]4CC[C@@]3(C)C4(C)C)nn2)c1 ?
small value

Which class holds CC1(C)[C@H]2CC[C@]1(C)N(Cc1cn(-c3ccc(C#N)cc3)nn1)C(=O)C2 ?
mid value

Tag the class for CC1(C)[C@H]2CC[C@]1(C)N(Cc1cn(-c3cccc(C#N)c3)nn1)C(=O)C2
large value

Exam item: assign CC1(C)[C@H]2CC[C@]1(C)N(Cc1cn(-c3ccccc3C#N)nn1)C(=O)C2 to the correct category.
mid value

* * *

Entries and their measured pIC50 follow.
- System: A549
- measurement notes: Antiproliferative activity against human A549 cells assessed as inhibition of cell proliferation measured after 24 hrs by MTT assay
- Type: functional, cell-based
- condition: A549, 24 h
pIC50 field: float, defined as -log10 of concentration (mol/L).

INSERT INTO assay_data (input_smiles, study_system, measured_endpoint, readout_value) VALUES
  ('CC1(C)[C@H]2CC[C@]1(C)N(Cc1cn(-c3ccccc3Cl)nn1)C(=O)C2', 'A549', 'pIC50', 7.15),
  ('CC1(C)[C@H]2CC[C@]1(C)N(Cc1cn(-c3ccccc3O)nn1)C(=O)C2', 'A549', 'pIC50', 6.64);

Alright, here's another compound for you.
Any idea what pIC50 was measured for CC1(C)[C@H]2CC[C@]1(C)N(Cc1cn(-c3cccc(Br)c3)nn1)C(=O)C2 ?
7.05

* * *

Quick list: CC50 at 24 h per entry.
- measurement notes: Cytotoxicity against human IOSE80 cells assessed as reduction in cell viability measured after 24 hrs by MTT assay
- Format: cell-based
Give just the number in µM; leave the unit off.

The cases that follow already have their CC50 at 24 h on record.
INSERT INTO assay_data (input_smiles, measured_endpoint, readout_value) VALUES
  ('CC1(C)[C@H]2CC[C@]1(C)N(Cc1cn(-c3cccc(Br)c3)nn1)C(=O)C2', 'CC50 at 24 h', 9.55),
  ('CC1(C)[C@H]2CC[C@]1(C)N(Cc1cn(-c3ccccc3C#N)nn1)C(=O)C2', 'CC50 at 24 h', 13.8),
  ('CC1(C)[C@H]2CC[C@]1(C)N(Cc1cn(-c3ccccc3Cl)nn1)C(=O)C2', 'CC50 at 24 h', 13.3);

Field: next molecule
GET /values?readout=CC50 at 24 h&item= CC1(C)[C@H]2CC[C@]1(C)N(Cc1cn(-c3ccccc3F)nn1)C(=O)C2
19.2

* * *

- measurement notes: Cytotoxicity against human MRC5 cells assessed as reduction in cell viability measured after 24 hrs by MTT assay
- Type: cell-based
Rule: CC50 at 24 h below 10 µM gives satisfied, anything at or above gives not satisfied.

Below, 3 compounds whose answers are already recorded.
INSERT INTO assay_data (input_smiles, discrete_label) VALUES
  ('C=CCNC1=C2C[C@@H](C)C[C@H](OC)[C@H](O)[C@@H](C)/C=C(\C)[C@H](OC(N)=O)[C@@H](OC)/C=C\C=C(/C)C(=O)NC(=CC1=O)C2=O', 'not satisfied'),
  ('CC1(C)[C@H]2CC[C@]1(C)N(Cc1cn(-c3ccccc3F)nn1)C(=O)C2', 'not satisfied'),
  ('CC1(C)[C@H]2CC[C@]1(C)N(Cc1cn(-c3cccc(Cl)c3)nn1)C(=O)C2', 'satisfied');

Just wondering, is CC50 at 24 h of CC1(C)[C@H]2CC[C@]1(C)N(Cc1cn(-c3ccc(C#N)cc3)nn1)C(=O)C2 below 10 µM?
not satisfied

Is CC50 at 24 h of CC1(C)[C@H]2CC[C@]1(C)N(Cc1cn(-c3ccccc3C#N)nn1)C(=O)C2 strictly below 10 µM?
not satisfied

For this compound, is CC50 at 24 h lower than 10 µM? CC1(C)[C@H]2CC[C@]1(C)N(Cc1cn(-c3cccc(Br)c3)nn1)C(=O)C2
not satisfied

Given CC1(C)[C@H]2CC[C@]1(C)N(Cc1cn(-c3ccccc3Cl)nn1)C(=O)C2 , is recorded CC50 at 24 h strictly lower than 10 µM?
satisfied

* * *

- study system: Heat shock protein HSP 90-alpha (Homo sapiens)
- measurement notes: Inhibition of recombinant human N terminal his-tagged HSP90 alpha (1 to 732 residues) expressed in Escherichia coli measured after 60 mins by Flourescence polarization assay
# note: exactly 3 nM is not below, so it is Condition not met; use Condition met for IC50 strictly under it

INSERT INTO measurements (input_smiles, discrete_label) VALUES
  ('CC1(C)[C@H]2CC[C@]1(C)N(Cc1cn(-c3ccccc3Cl)nn1)C(=O)C2', 'Condition not met'),
  ('CC1(C)[C@H]2CC[C@]1(C)N(Cc1cn(-c3ccccc3)nn1)C(=O)C2', 'Condition not met'),
  ('CC1(C)[C@H]2CC[C@]1(C)N(Cc1cn(-c3ccccc3F)nn1)C(=O)C2', 'Condition met'),
  ('CC1(C)[C@H]2CC[C@]1(C)N(Cc1cn(-c3ccccc3C#N)nn1)C(=O)C2', 'Condition not met'),
  ('CC1(C)[C@H]2CC[C@]1(C)N(Cc1cn(-c3cccc(Cl)c3)nn1)C(=O)C2', 'Condition not met'),
  ('CC1(C)[C@H]2CC[C@]1(C)N(Cc1cn(-c3cccc(Br)c3)nn1)C(=O)C2', 'Condition met');

Attention now turns to another entry.
Lab note: IC50 threshold 3 nM. Does this compound come in strictly under it? CC1(C)[C@H]2CC[C@]1(C)N(Cc1cn(-c3ccc(C#N)cc3)nn1)C(=O)C2
Condition not met

* * *

Each item that follows carries a reported pIC50.
- Tested on: A549
- measurement notes: Antiproliferative activity against human A549 cells assessed as inhibition of cell proliferation measured after 24 hrs by MTT assay
- Format: functional, cell-based
- condition: A549, 24 h
# pIC50 = -log10(concentration in molar units)

INSERT INTO measurements (input_smiles, readout_value) VALUES
  ('CC1(C)[C@H]2CC[C@]1(C)N(Cc1cn(-c3ccccc3)nn1)C(=O)C2', 7.15),
  ('COc1ccccc1-n1cc(CN2C(=O)C[C@@H]3CC[C@@]2(C)C3(C)C)nn1', 6.46),
  ('COc1ccc(-n2cc(CN3C(=O)C[C@@H]4CC[C@@]3(C)C4(C)C)nn2)cc1', 7.30),
  ('CC1(C)[C@H]2CC[C@]1(C)N(Cc1cn(-c3ccccc3Br)nn1)C(=O)C2', 6.89),
  ('CC1(C)[C@H]2CC[C@]1(C)N(Cc1cn(-c3ccc(Cl)cc3)nn1)C(=O)C2', 7.15);

Give recorded pIC50 with A549 for the following compound: CC1(C)[C@H]2CC[C@]1(C)N(Cc1cn(-c3ccc(F)cc3)nn1)C(=O)C2
6.64
